System: S. aureus ATCC29213
PROTOCOL_TEXT: MIC, broth microdilution (CLSI)
Assay type: cell-based
PARTICULARS: Staphylococcus aureus, first value of cell
The compounds listed here are annotated with their MIC.
Numeric only. Scale: µg/mL

CC(=O)N(Cc1ccccc1)c1cc2nc(NC(=O)c3[nH]c(C)c(Cl)c3Cl)sc2cc1C(=O)O    8

Kindly review the next compound as well.
Form field: reported MIC of "Cc1[nH]c(C(=O)Nc2nc3c(C)c(F)c(C(=O)O)cc3s2)c(Cl)c1Cl"
0.5

Provenance of the data: paper PMC10339456
